As shown below, each of these molecules has a reported melting point value.

Below: 3 molecules and their reported melting point.
{"columns": ["Smiles Input", "melting point"],
 "data": [
  ["COc1cccc(OC)c1-c1ccc(C[C@H](NC(=O)c2c(Cl)cc(NC(N)=O)cc2Cl)C(=O)O)cc1", "220 to 221 °C"],
  ["CCCCCCC(=O)c1cc(C[C@H](NC(=O)c2c(Cl)cccc2Cl)C(=O)O)ccc1-c1ccccc1OC", "86 to 88 °C"],
  ["COc1cc(N)cc(OC)c1-c1ccc(C[C@H](NC(=O)c2c(Cl)cccc2Cl)C(=O)O)cc1", "221 to 222 °C"]
]}

# ---- query molecule ----
What value of melting point has been recorded for this entry: "COC(=O)Nc1cc(Cl)c(C(=O)N[C@@H](Cc2ccc(-c3c(OC)cccc3OC)cc2)C(=O)O)c(Cl)c1"
147 to 149 °C

Each recorded value in this set is attributed to patent US6855843B2.
